- Tested Target: human active recombinant p38α-6His tagged (Homo sapiens)
- Test Description: P38 Alpha Enzyme Assay (AlphaScreen, biotinylated-ATF2 substrate)
- Experimental Conditions: p38 alpha enzyme inhibition; means of replicate determinations; 4 h pre-incubation at 37° C.; SD of assay 0.2-0.3 log units
Assay Metric: IC50 (nM)

CNCCCOc1ccccc1[C@H]1CCCN1c1nccn(-c2cc(C(=O)NC3CC3)ccc2C)c1=O (single isomer, unassigned): 1.26

A: Cc1ccc(C(=O)NC2CC2)cc1-n1ccnc(NCC2(c3ccccc3)CCN(C)CC2)c1=O
B: Cc1ccc(C(=O)NC2CC2)cc1-n1ccnc(N2CCc3ccccc3C2)c1=O
C: CNCCCOc1ccccc1[C@@H]1CCCN1c1nccn(-c2cc(C(=O)NC3CC3)ccc2C)c1=O (single isomer, unassigned)
Task: Your job: order these 3 records by IC50, ascending. # the answer lists labels in the order requested
Result: C, B, A
(C: 25.1 nM, B: 126 nM, A: 251 nM)

* * *

- Tested Target: human active recombinant p38α-6His tagged (Homo sapiens, UniProt Q16539)
- Sequence (Q16539 whole entry): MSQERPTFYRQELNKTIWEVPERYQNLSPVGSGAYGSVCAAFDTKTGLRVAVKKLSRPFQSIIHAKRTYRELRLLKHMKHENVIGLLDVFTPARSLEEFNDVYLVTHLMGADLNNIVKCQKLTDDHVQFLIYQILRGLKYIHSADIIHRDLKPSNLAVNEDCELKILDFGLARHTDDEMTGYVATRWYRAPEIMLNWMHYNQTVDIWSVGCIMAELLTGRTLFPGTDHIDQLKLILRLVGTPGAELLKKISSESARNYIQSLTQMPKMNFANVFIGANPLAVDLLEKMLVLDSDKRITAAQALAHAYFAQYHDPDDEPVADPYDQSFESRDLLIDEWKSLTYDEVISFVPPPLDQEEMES
- Test Description: P38 Alpha Enzyme Assay (AlphaScreen, biotinylated-ATF2 substrate);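 also: 0.5 nM final p38α, reaction started with ATP and run 45 min at 37 °C, phospho-ATF2 read by antibody-based AlphaScreen, background wells quenched with EDTA before ATP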
- Assay type: biochemical
- Experimental Conditions: p38 alpha enzyme inhibition; means of replicate determinations; 4 h pre-incubation at 37° C.; SD of assay 0.2-0.3 log units
Assay Metric: pIC50

CCNC(=O)c1ccc(C)c(-n2ccnc(NC(C)(C)c3ccccc3OCCNC)c2=O)c1 [Example 220]: 8.3
CCNCCOc1ccc(F)cc1C1(Nc2nccn(-c3cc(C(=O)NC4CC4)ccc3C)c2=O)CC1 [Example 280]: 10.1
Cc1cccc([C@H](Nc2nccn(-c3cc(C(=O)NC4CC4)ccc3C)c2=O)[C@@H](C)CO)c1 [Example 273]: 9
Cc1ccc(C(=O)NC2CC2)cc1-n1ccnc(N[C@@H]2CCc3ccccc32)c1=O [Example 17]: 6.6
Cc1ccc(C(=O)NC2CC2)cc1-n1ccnc(N[C@@H](c2ccccc2)[C@@H](C)CN2CCC(N(C)C)CC2)c1=O [Example 176]: 8.7
Cc1ccc(C(=O)NC2CC2)cc1-n1ccnc(NC(CN2CCCC2)c2ccccc2)c1=O (stereo not shown) [Example 34]: 6.4
Cc1ccc(C(=O)NC2CC2)cc1-n1ccnc(NCc2ccccc2-c2ccccc2)c1=O [Example 44]: 7.6
CNCCOc1ccc(F)cc1C1(Nc2nccn(-c3cc(C(=O)NC4CC4)cc(F)c3C)c2=O)CC1 [Example 281]: 10.4
COc1ccccc1C1CCCN1c1nccn(-c2cc(C(=O)NC3CC3)ccc2C)c1=O (stereo not shown) [Example 97]: 8.7
Cc1ccc(C(=O)NC2CC2)cc1-n1ccnc(NCCc2cccc(O)c2)c1=O [Example 71]: 6.8
CNCCOc1ccccc1C(C)(C)Nc1nccn(-c2cc(C(=O)NC(C)C)ccc2C)c1=O [Example 223]: 8.1
Cc1ccc(C(=O)NC2CC2)cc1-n1ccnc(NC2(c3ccccc3OCCN3CCC(F)(F)C3)CC2)c1=O [Example 244]: 9.2
Cc1ccc(C(=O)NC2CC2)cc1-n1ccnc(N[C@@H](c2cccc3ccccc23)[C@@H](C)CO)c1=O [Example 137]: 8.1
CNCCOc1ccccc1C(C)(C)Nc1nccn(-c2cc(C(=O)NC3CCC3)ccc2C)c1=O [Example 224]: 8.4
CNCCOc1ccc(F)cc1C1(Nc2nccn(-c3cc(C(=O)NC4CC4)ccc3C)c2=O)CC1 [Example 278]: 9.9
Cc1ccc(C(=O)NC2CC2)cc1-n1ccnc(N[C@@H](c2ccccc2)[C@@H](C)CN2CCC3(CC2)OCCO3)c1=O [Example 179]: 8.9
